molecular target: T1, human tissue factor (TF), membrane-bound on cells (human, UniProt P13726 33-295); test: FACS, A431 cells, 30 µg/mL
T1 construct: whole, on cells; also called cellular TF
readout_label: Max MFI
The reply should be a number, written without any unit.

Example binders with recorded Max MFI:
>  <binder>
anti-TF HuMab 098 (antibody, V domains shown, Human monoclonal antibody from HuMab mice; also called HuMab-TF-098; HuMab-TF-98) VH: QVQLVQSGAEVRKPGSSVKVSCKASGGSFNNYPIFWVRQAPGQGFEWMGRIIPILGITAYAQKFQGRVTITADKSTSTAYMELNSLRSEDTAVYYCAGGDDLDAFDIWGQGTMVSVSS VL: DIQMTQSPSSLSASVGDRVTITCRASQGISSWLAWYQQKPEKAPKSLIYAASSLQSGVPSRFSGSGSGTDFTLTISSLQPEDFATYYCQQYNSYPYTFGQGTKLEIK

>  <Max MFI>
2760

$$$$
>  <binder>
anti-TF HuMab 011 (antibody, V domains shown, Human monoclonal antibody from HuMab mice; also called HuMab-TF-11) VH: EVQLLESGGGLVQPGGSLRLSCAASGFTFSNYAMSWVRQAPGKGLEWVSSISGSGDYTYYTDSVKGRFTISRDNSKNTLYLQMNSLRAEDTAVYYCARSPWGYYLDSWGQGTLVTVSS VL: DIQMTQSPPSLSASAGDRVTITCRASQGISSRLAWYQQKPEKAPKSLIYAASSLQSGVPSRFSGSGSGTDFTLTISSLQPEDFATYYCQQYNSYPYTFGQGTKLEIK

>  <Max MFI>
2610

$$$$

Supply recorded Max MFI for anti-TF HuMab 003 (antibody, V domains shown, Human monoclonal antibody from HuMab mice; also called HuMab-TF-003) VH: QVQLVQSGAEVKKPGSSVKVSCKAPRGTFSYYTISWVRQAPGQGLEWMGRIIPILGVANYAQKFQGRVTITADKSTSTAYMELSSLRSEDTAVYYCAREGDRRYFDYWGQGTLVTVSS VL: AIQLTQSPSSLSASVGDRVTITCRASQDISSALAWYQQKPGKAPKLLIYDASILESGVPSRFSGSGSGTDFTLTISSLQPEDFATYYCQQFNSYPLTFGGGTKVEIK here.
2530
